target: HLA-A*03:01; assay: IEDB peptide-MHC binding, purified MHC/competitive/radioactivity; filed as Kd, often an IC50 or EC50 that approximates it; bounds were set here for any values at or beyond the usual limits of such assays; details: source organism: Vaccinia virus WR
Would you kindly list Kd for each of these sequences?
Numbers only, in µM.

# biopolymer sequence, assay target, Kd, µM
records = [
    ("YFSKQTQTY", "HLA-A*03:01", 17.3),
    ("RMLDTSEKY", "HLA-A*03:01", 4.98),
    ("ILMIFISSFL", "HLA-A*03:01", 0.397),
    ("VTDLENRLK", "HLA-A*03:01", 2.25),
    ("LSKIPYLRNY", "HLA-A*03:01", 6.94),
]

Could you tell me Kd for each of these sequences? They are listed below.
1. NSISARALK
2. TSDSKSIENK
3. ILFMEMFFDY
4. ITLDTMDDMK

1. 0.0787
2. 10.4
3. 0.0316
4. 3.19

* * *

Would you kindly list pKd for each of these sequences?
molecular target: HLA-B*44:03; assay: IEDB peptide-MHC binding, purified MHC/competitive/radioactivity; filed as Kd, often an IC50 or EC50 that approximates it; bounds were set here for any values at or beyond the usual limits of such assays; settings: source organism: Lymphocytic choriomeningitis virus (strain Armstrong)
Numbers only, as −log10 of the molar value.

These solved cases illustrate the format of a correct answer.
# biopolymer sequence, pKd
rows = [
    ("QEADNMITEM", 6.09),
    ("FENAILSMTI", 6.41),
]

Here is the next item to consider.
Any idea what its pKd is? The sequence is `FENAILSMT`
5.20

* * *

biological target: HLA-A*02:01; assay: IEDB peptide-MHC binding, purified MHC/direct/fluorescence; filed as Kd, often an IC50 or EC50 that approximates it; bounds were set here for any values at or beyond the usual limits of such assays; settings: source organism: Cryptosporidium parvum
measure: Kd (nM)
Answers are plain numbers, in nM.

Any idea what its Kd is? The sequence is `KMFNSVGGA`
26

* * *

biological target: HLA-B*08:01; test: IEDB peptide-MHC binding, purified MHC/direct/fluorescence; filed as Kd, often an IC50 or EC50 that approximates it; bounds were set here for any values at or beyond the usual limits of such assays; conditions: source organism: Yersinia pestis
measure: pKd
One number for each entry, as −log10 of the molar value.

Report pKd for `VPRVHNQPQ` tested on HLA-B*08:01.
5.25

* * *

target: HLA-B*15:17; assay: IEDB peptide-MHC binding, purified MHC/direct/fluorescence; filed as Kd, often an IC50 or EC50 that approximates it; bounds were set here for any values at or beyond the usual limits of such assays; settings: source organism: Giardia lamblia ATCC 50803
measure: Kd

Any idea what its Kd is? The sequence is `MHDPHSIPL`
≥ 20 µM

* * *

target: HLA-B*46:01; assay: IEDB peptide-MHC binding, purified MHC/direct/fluorescence; filed as Kd, often an IC50 or EC50 that approximates it; bounds were set here for any values at or beyond the usual limits of such assays; settings: source organism: Orthohantavirus andesense
pKd: −log10 of the molar value.
measure: pKd

Any idea what its pKd is? The sequence is `YRRKLTNPA`
≤ 4.70

Attribution: the Immune Epitope Database (IEDB)
